# assay.target: human ether a go-go related gene (hERG) K+ channel (Homo sapiens, UniProt Q12809)
# Construct: a Chinese Hamster Lung cell line stably expressing the full length hERG channel
# Sequence (Q12809 whole entry): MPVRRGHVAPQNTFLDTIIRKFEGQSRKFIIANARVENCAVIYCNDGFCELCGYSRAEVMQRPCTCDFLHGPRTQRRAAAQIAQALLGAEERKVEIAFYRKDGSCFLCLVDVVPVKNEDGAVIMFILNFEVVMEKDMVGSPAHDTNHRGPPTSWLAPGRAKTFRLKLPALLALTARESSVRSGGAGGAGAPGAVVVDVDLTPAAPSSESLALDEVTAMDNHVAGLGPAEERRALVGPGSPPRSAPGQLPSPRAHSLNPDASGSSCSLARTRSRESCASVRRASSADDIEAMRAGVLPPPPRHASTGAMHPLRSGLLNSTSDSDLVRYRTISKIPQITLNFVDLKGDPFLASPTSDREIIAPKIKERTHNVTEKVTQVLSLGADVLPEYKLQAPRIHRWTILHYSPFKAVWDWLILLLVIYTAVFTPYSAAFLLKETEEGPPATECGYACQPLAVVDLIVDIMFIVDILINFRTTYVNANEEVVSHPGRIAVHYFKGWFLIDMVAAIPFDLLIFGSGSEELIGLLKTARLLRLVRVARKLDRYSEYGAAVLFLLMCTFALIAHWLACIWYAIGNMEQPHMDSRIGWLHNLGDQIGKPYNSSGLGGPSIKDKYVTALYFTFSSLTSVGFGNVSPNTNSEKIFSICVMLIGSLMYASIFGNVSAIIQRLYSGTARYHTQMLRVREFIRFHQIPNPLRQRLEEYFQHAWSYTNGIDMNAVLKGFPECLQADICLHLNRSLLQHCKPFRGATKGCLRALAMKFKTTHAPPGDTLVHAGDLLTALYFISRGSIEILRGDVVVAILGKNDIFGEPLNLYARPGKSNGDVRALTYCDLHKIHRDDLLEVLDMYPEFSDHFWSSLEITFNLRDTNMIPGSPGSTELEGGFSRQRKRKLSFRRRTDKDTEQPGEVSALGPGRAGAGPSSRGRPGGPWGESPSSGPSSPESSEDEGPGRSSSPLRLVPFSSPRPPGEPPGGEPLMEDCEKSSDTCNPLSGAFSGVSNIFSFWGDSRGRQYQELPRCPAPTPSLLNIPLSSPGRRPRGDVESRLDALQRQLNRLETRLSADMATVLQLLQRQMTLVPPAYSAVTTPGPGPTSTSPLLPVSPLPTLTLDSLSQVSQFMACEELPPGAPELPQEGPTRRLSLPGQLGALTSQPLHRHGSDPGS
# assay.overview: hERG assay, IonWorks patch clamp electrophysiology
# test.parameters: Chinese Hamster Lung cell line stably expressing hERG; max assay concentration 11 uM
pIC50: −log10 of the molar value.
readout: pIC50

These solved cases illustrate the format of a correct answer.
[[record]]
compound = "Clc1ccc(-n2c(-c3ccc(CN4CCOCC4)nc3)cc3ccncc32)cc1 [Example 140]"
readout = "pIC50"
assay_value = "5.00 to 6.00"

[[record]]
compound = "CC1(C)CN(c2ncc(-c3nc4ccncc4n3-c3ccc(F)cc3)cn2)CCO1 [Example 24]"
readout = "pIC50"
assay_value = "< 5.00"


Measured pIC50, CS(=O)(=O)N1CCN(c2ccc(-c3nc4ccncc4n3-c3ccc(F)cc3)cn2)CC1 [Example 89] : < 5.00

Measured pIC50, Clc1ccc(-n2c(-c3ccc(N4CCOCC4)nc3)nc3ccncc32)nc1 [Example 81] : < 5.00

Measured pIC50, O=c1cc(-c2cc3ccncc3n2-c2ccc(Cl)cc2)ccn1C1CC1 [Example 138] : 5.00 to 6.00

Measured pIC50, Clc1ccc(-n2c(-c3cnc(N4CCOCC4)nc3)nc3ccncc32)cc1 [Example 51] : 5.00 to 6.00

Measured pIC50, Fc1cc(Cl)ccc1-n1c(-c2ccc(N3CCOCC3)nc2)nc2ccncc21 [Example 80] : < 5.00

Measured pIC50, Fc1ccc(-n2c(-c3cnc(NC4CCOCC4)nc3)nc3ccncc32)cc1 [Example 20] : < 5.00

Measured pIC50, Clc1ccc(-n2c(-c3ccncc3)cc3ccncc32)cc1 [Example 120] : 5.00 to 6.00

Measured pIC50, Clc1ccc(-n2c(-c3ccncc3)nc3ccncc32)cc1 [Example 2] : < 5.00

* * *

# assay.target: purified recombinantly expressed human SSAO (Homo sapiens, UniProt Q16853)
# Sequence (Q16853 whole entry): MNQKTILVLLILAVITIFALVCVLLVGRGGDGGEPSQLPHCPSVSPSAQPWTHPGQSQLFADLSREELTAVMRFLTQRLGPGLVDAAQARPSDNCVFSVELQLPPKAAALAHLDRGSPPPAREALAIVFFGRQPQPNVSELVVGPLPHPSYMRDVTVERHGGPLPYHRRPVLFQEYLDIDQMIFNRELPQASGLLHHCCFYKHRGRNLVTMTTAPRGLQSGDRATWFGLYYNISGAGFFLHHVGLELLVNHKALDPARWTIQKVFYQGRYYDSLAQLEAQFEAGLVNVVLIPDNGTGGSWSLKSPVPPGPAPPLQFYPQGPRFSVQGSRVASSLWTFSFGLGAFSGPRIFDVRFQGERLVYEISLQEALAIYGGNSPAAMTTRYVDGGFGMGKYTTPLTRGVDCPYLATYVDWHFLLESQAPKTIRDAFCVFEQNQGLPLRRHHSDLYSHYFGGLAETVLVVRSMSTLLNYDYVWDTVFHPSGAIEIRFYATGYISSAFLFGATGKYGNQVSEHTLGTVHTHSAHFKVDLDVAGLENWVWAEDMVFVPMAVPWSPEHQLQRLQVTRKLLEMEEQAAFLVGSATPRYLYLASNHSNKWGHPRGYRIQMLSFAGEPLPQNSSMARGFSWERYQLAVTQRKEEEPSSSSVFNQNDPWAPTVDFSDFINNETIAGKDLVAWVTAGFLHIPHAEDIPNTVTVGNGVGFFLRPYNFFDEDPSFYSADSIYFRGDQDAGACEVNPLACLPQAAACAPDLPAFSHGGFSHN
# assay.overview: SSAO enzyme inhibition assay (benzylamine substrate; hydrogen peroxide/HRP-coupled or 14C aldehyde detection)
# test.parameters: SSAO inhibitory activity, RT
pIC50: −log10 of the molar value.
Reported pIC50 by item:

Query `Cc1ccc(-n2c(-c3cnc(N4CCOCC4)nc3)nc3ccncc32)cn1` on purified recombinantly expressed human SSAO (Homo sapiens, UniProt Q16853); pIC50 returned: 5.92 to 6.70

Query `Cc1nc(N2CCOCC2)ccc1-c1nc2ccncc2n1-c1ccc(F)cc1` on purified recombinantly expressed human SSAO (Homo sapiens, UniProt Q16853); pIC50 returned: 5.92 to 6.70

Query `Cc1ccc(-n2c(-c3ccc(N4CCOCC4)nc3)nc3ccncc32)c(F)c1` on purified recombinantly expressed human SSAO (Homo sapiens, UniProt Q16853); pIC50 returned: > 7.30

Query `NC(=O)NC1CCN(c2ccc(-c3nc4ccncc4n3-c3ccc(Cl)cc3)cn2)CC1` on purified recombinantly expressed human SSAO (Homo sapiens, UniProt Q16853); pIC50 returned: 5.92 to 6.70

Query `Fc1cnccc1-c1cc2ccncc2n1-c1ccc(Cl)cc1` on purified recombinantly expressed human SSAO (Homo sapiens, UniProt Q16853); pIC50 returned: 5.92 to 6.70

Query `Fc1ccc(-n2c(-c3cnc(N4CCCC4)nc3)nc3ccncc32)cc1` on purified recombinantly expressed human SSAO (Homo sapiens, UniProt Q16853); pIC50 returned: > 7.30

Query `CN1CCN(c2ncc(-c3nc4ccncc4n3-c3ccc(F)cc3)cn2)CC1=O` on purified recombinantly expressed human SSAO (Homo sapiens, UniProt Q16853); pIC50 returned: 6.70 to 7.30

Query `Clc1ccc(-n2c(-c3cnc(N4CCNCC4)s3)nc3ccncc32)cc1` on purified recombinantly expressed human SSAO (Homo sapiens, UniProt Q16853); pIC50 returned: 6.70 to 7.30
